Every entry's value here was drawn from ChEMBL document CHEMBL1137129.

# Subject Of Test: Inhibitor of nuclear factor kappa-B kinase subunit beta (Homo sapiens, UniProt O14920)
# Sequence (O14920 whole entry): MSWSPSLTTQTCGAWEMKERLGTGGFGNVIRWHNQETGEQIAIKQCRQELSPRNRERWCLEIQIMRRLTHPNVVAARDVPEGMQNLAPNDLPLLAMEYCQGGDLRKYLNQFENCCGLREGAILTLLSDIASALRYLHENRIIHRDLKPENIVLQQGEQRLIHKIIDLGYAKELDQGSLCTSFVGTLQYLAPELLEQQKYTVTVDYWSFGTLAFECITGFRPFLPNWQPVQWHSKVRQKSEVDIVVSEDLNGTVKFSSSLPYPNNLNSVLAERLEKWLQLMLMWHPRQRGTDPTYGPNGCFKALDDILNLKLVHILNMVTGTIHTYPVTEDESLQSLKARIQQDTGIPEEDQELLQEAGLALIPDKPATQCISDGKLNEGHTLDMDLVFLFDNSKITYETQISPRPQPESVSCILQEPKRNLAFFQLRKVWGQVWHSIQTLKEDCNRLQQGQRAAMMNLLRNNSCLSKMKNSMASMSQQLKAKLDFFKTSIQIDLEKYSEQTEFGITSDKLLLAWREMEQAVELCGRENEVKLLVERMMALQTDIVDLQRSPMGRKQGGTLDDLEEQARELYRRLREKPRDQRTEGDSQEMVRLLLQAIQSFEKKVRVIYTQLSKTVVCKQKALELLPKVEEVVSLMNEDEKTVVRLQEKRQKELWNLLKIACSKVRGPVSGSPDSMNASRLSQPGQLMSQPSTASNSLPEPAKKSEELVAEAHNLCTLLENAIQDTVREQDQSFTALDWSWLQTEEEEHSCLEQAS
# Assay Summary: Inhibitory activity against recombinant human I-kappa-B-kinase beta
IC50 values by entry
Measure Name: IC50 (nM)

molecule="COc1ccc(CC(N)c2cc(-c3ccccc3O)nc(N)c2C#N)cc1 (stereo not drawn)" value=80
molecule="N#Cc1c(CC(N)c2ccccc2)cc(-c2ccccc2O)nc1N (stereo not drawn)" value=110
molecule=N#Cc1c(CCN)cc(-c2ccccc2O)nc1N value=70
